# Test system: MS2 coat protein
# Run Description: apparent KD of MS2 coat protein; designed switch direction (-1 OFF switch, 1 ON switch): 1; higher = weaker reporter binding
# Assay Conditions: input ligand: microRNA oligo, concentration not stated
I'd be grateful if you could share measured apparent KD of MS2 coat protein for these entries.
Answers are plain numbers, in µM.

Worked examples, 5 sequences total:
AAACGGCCCAACGAAGGGCCACAUGAGGAUCACCCAUGUACAUAGGAUAUCACGCCAACAAAGCGUGAGAAGGGUGAUUAAAAC [Lezaer] (Eterna round: R96, puzzle: Same State NG 3): 0.0116
AGCUAUUAAUCAGGAUAUAGUGACAUGAGGAUCACCCAUGUAUUGAUGAUUAAAUGUGGUCACUACUAGAAGGGAUUACUAACA [SameState NG2 #49] (Eterna round: R96, puzzle: Same State NG 2): 0.0514
GAGUAGUUGGGAGGAUAUCGAUUGUUAUAGAAUCGAGAAGGUCCUAACAUGAGGAUCACCCAUGUAGGACUAUUCCUGUGUAUC [Parity 75 - Jieux - Same State NG 1] (Eterna round: R96, puzzle: Same State NG 1): 0.0075
CUAGGAGGAUGAGGAUAUGCAGAGGAUCACCCUGUAGAAGGCAAGAGAUGAGGAUAUGCAGAGGAUCACCCUGUAGAAGGCAAC [pwkr ssNG DX.1] (Eterna round: R96, puzzle: Same State NG 1): 0.0865
AUUGGGUAACGAGGAUAUCGUUUUUGUUUUCUUCGAGAAGGCGUUAUUGUUUAUUUCUAUUGUUACAUGAGGAUCACCCAUGUU [JR_SSNG1_Sub055] (Eterna round: R96, puzzle: Same State NG 1): 0.0138

For each listed entry, give its apparent KD of MS2 coat protein.
1. CUGUAUCACGGAGGAUAUGGGCUGAGACCAGGGCAACCCUGGUCAACAUGAGGAUCACCCAUGUCCCAGAAGGCCGCGAUGCUA [Geisorqu] (Eterna round: R96, puzzle: Same State NG 2)
2. UGUUAGUAGUGAGGAUAUACAUACACCUUACAUGAGGAUCACCCAUGUUUUAAUAUUGAUAGUUAGUAGAAGGCACAUGAUUAU [JR_SSNG2_Sub043] (Eterna round: R96, puzzle: Same State NG 2)
3. ACAAGCUUUUUGCUCCUCUUAUGUCCGAAACAUGAGGAUCACCCAUGUAUAGAUUGUGUGUUGUUGUAGAUGCAAGA [JR_SHM208A_Sub061] (Eterna round: R96, puzzle: Sensor for hsa-mir-208a)
4. UAGCUCGUGUGAGGAUAUGCCGCCGUUUCGGCUGCAGAAGGUGCUACGUUACAUGAGGAUCACCCAUGUCUCUGUUGUUUCGUG [salish99_SSNG1_r04_957] (Eterna round: R96, puzzle: Same State NG 1)

Key:
1: 0.0829; 2: 0.0358; 3: 0.0634; 4: 0.0196
